Test system: ATP;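 further: ATP exposure 15 min at 22 °C before imaging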
assay-explanation: switch fluorescence ratio, 500 uM ATP over buffer (Cy3 cluster intensity, sum of 5 cycles each) (fold (ratio)); higher = stronger signal-on switching upon ATP binding; sequences stand for … in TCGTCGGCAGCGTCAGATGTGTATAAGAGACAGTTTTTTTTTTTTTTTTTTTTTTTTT…TC
reported-conditions: aptamer strand: ATP DNA aptamer (quencher-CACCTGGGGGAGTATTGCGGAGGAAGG + anchor), 100 nM annealed; ATP concentration: 500 uM
endpoint-name: switch fluorescence ratio
One number for each entry.

{"columns": ["residue-sequence", "assay-system", "measured-number"],
 "data": [
  ["TTTTAATGGG", "ATP", 0.999]
]}

Could I get switch fluorescence ratio for every one of these entries?
1. AAATCAACCC
2. AGAGGTTATG
3. TTTAAGGGGA
4. GCACTCGGCT
5. GGTTACTGAG
6. AAGGATGGGA

1: 0.988; 2: 0.986; 3: 0.996; 4: 0.991; 5: 0.98; 6: 1

Could I get switch fluorescence ratio for every one of these entries?
1. GGTTGGATGG
2. GGTATAAAGG

1
0.996

* * *

Tested on: ATP;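 further: ATP exposure 15 min at 22 °C before imaging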
assay-explanation: switch fluorescence ratio, 500 uM ATP over buffer (Cy3 cluster intensity, sum of 5 cycles each) (fold (ratio)); higher = stronger signal-on switching upon ATP binding; sequences stand for … in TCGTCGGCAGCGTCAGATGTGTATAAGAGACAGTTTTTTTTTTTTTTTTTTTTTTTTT…TC
reported-conditions: aptamer strand: ATP DNA aptamer (quencher-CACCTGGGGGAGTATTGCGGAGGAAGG + anchor), 100 nM annealed; ATP concentration: 500 uM
Provide the reported switch fluorescence ratio of each item.
Answers are plain numbers.

Below, each entry is followed by its recorded switch fluorescence ratio result.
{"columns": ["residue-sequence", "switch fluorescence ratio"],
 "data": [
  ["AACATAGGTC", 1.06],
  ["CGGATTAGGG", 1],
  ["GTTGTGATAG", 1.01],
  ["TGAGGTCAGA", 1.03],
  ["TTAGGTCCGG", 1.01],
  ["TTTTATACTT", 1],
  ["AGAAGGGGAT", 1.01],
  ["ATGATTTGGG", 1.01]
]}

Could I get switch fluorescence ratio for every one of these entries?
1. CGAACGGGGG
2. CGAAGGGGGA
3. TCATGGGGGT
4. AGGCGCGGTG
5. CGGTGAATTT
6. GAGTAGAGGG
7. ATGGGGACTT

1
0.995
0.995
1.03
0.983
0.954
0.979

* * *

System: ATP;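 further: ATP exposure 15 min at 22 °C before imaging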
assay-explanation: switch fluorescence ratio, 500 uM ATP over buffer (Cy3 cluster intensity, sum of 5 cycles each) (fold (ratio)); higher = stronger signal-on switching upon ATP binding; sequences stand for … in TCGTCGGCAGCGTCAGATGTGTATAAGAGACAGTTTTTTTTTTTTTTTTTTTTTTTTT…TC
reported-conditions: aptamer strand: ATP DNA aptamer (quencher-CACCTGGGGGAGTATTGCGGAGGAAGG + anchor), 100 nM annealed; ATP concentration: 500 uM
endpoint-name: switch fluorescence ratio
Give bare numbers.

{"columns": ["residue-sequence", "switch fluorescence ratio"],
 "data": [
  ["ACTTTGTTGC", 1.01],
  ["ACGGGTTTGG", 1.01],
  ["TTAGGCGGGT", 1.01]
]}

Could I get switch fluorescence ratio for every one of these entries?
1. GGGTCCATTT
2. TTTGGCGTGC
3. ACTGAGTCAT
4. TGGAGAGGTG
5. TGCAGATTTT
6. TCGAGGGGAG
7. CATGTAATTG

1. 1.01
2. 1
3. 1.01
4. 1.02
5. 0.994
6. 0.978
7. 1.02
